protocol details: Biodistribution and in vivo binding specificity in PC-3 tumor-bearing BALB/c nu/nu mice
condition info: male, BALB/c nu/nu, mouse, lung, iv, 45 pmol, total radioactivity, male BALB/c nu/nu mice with PC-3 xenografts, 45 pmol i.v., 1 h p.i.; read-out: Lung uptake
property label: tissue uptake at 1 h (%ID/g)
Quick reminder: number only, in %ID/g, skip the unit.

# return recorded tissue uptake at 1 h for entry CC(C)C[C@H](NC(=O)C[C@H](O)[C@H](CC(C)C)NC(=O)[C@H](Cc1c[nH]cn1)NC(=O)CNC(=O)[C@@H](NC(=O)[C@H](C)NC(=O)[C@H](Cc1c[nH]c2ccccc12)NC(=O)[C@H](CCC(N)=O)NC(=O)[C@@H](Cc1ccccc1)NC(=O)COCCOCCNC(=O)CN1CCN(CC(=O)O)CCN(CC(=O)O)CC1)C(C)C)C(N)=O [[^18F]AlF-NOTA-P2-RM26]
0.36

# credit: paper PMC3849266
